Hey, just so you know, these numbers are from ChEMBL document CHEMBL3885881.

Organism: Rattus norvegicus
Assay: DrugMatrix - Regimen: Daily Repeat
Assay type: toxicity, organism-based, Sprague-Dawley
Set-up: regimen Daily Repeat, gender Male, age 6-8 weeks
Conditions: in vivo, po, 0 mg/kg, 120 h, tissue Plasma, route oral GAVAGE, dose level Control, time 5 day, […]
Quantity measured: PHOSPHORUS (mg/dL)

1) OCCN1CCN(CCCN2c3ccccc3Sc3ccc(C(F)(F)F)cc32)CC1; 8.72
2) COc1ncnc(NS(=O)(=O)c2ccc(N)cc2)c1OC; 10
3) CC(=O)Nc1nnc(S(N)(=O)=O)s1 [ACETAZOLAMIDE]; 10
4) CCn1cc(C(=O)O)c(=O)c2cc(F)c(N3CCNCC3)nc21; 11.5
5) CC(C)Cc1ccc(CC(=O)O)cc1; 12.07
6) CC(CCc1ccc(O)cc1)NCCc1ccc(O)c(O)c1 (centres undefined); 9.03
7) C#C[C@]1(O)CC[C@H]2[C@@H]3CCc4cc(O)ccc4[C@H]3CC[C@@]21C; 11.5
8) CN(CCOc1ccc(CC2SC(=O)NC2=O)cc1)c1ccccn1 (centres undefined); 9.98
9) CC[C@H](C)C(=O)O[C@H]1C[C@@H](C)C=C2C=C[C@H](C)[C@H](CC[C@@H]3C[C@@H](O)CC(=O)O3)[C@H]21; 10.8
